experiment: ovarian cancer cell viability with rucaparib, profiling panel, oncology-focused library, rucaparib conditional (AID 1508598); conditions: patient-derived ovarian cancer cells, CellTiter-Glo viability, 144 h; at 0.00122 µM; OCI-C5x cells; without rucaparib; active compounds read low
Examples of compounds with documented viability follow.
Please reply with the bare figure in % and do not write the unit itself.

# example entries with known answers
[[record]]
compound = "O=C1CCC(N2C(=O)c3ccccc3C2=O)C(=O)N1 (stereo unspecified)"
quantity_name = "viability"
measurement = 102

[[record]]
compound = "CC(C)C(=O)Nc1ccc([N+](=O)[O-])c(C(F)(F)F)c1"
quantity_name = "viability"
measurement = 115


Look up viability for this compound: `Cc1ccc(-c2cc(C(F)(F)F)nn2-c2ccc(S(N)(=O)=O)cc2)cc1` 111

Look up viability for this compound: `CCCCCCNC(=O)n1cc(F)c(=O)[nH]c1=O` 121

Look up viability for this compound: `NC(=O)c1ccc(-c2nc(-c3ccc4c(c3)OCO4)c(-c3ccccn3)[nH]2)cc1` 143

Look up viability for this compound: `O=c1[nH]cc(F)c(=O)[nH]1` 108

====

Examples of molecules with documented insulin secretion stimulation follow.
assay: stimulators of insulin release from INS-1E, primary screen, cell-based, 5 mM glucose, NPC library (AID 1117329); settings: rat INS-1E insulin secretion, at 10 µM, active compounds read high; further: reference of the scale not given here
Please reply with the bare figure in % and do not write the unit itself.

# example entries with known answers
[[record]]
molecule = "COc1ccc2cc(CCC(C)=O)ccc2c1"
measurement = 1.5

[[record]]
molecule = "COCCOC(=O)C1=C(C)NC(C)=C(C(=O)OC(C)C)C1c1cccc([N+](=O)[O-])c1 (stereo not given)"
measurement = -0.5

[[record]]
molecule = "COc1cc(C(=O)N2CCCCCCC2)cc(OC)c1OC"
measurement = 5

[[record]]
molecule = "NC(=O)N1c2ccccc2CC(=O)c2ccccc21"
measurement = -0.8

[[record]]
molecule = "CC(CSC(=O)c1ccccc1)C(=O)N1C[C@@H](Sc2ccccc2)C[C@H]1C(=O)O (stereo not given in full)"
measurement = 6.4


Look up insulin secretion stimulation for this molecule: `O=C1CCCc2c(O)cccc21` 0.3

Look up insulin secretion stimulation for this molecule: `CC(=O)OCC(=O)Nc1cc(C#N)cc(NC(=O)COC(C)=O)c1Cl` 4

Look up insulin secretion stimulation for this molecule: Cc1c(F)cc2c(=O)c(C(=O)O)cn3c2c1CCC3C (stereo not given) -1.9

====

Examples of compounds with documented tube area decrease follow.
test: inhibition of endothelial tube formation, primary screen, imaging, VEGF stimulated, CD31 staining, tube area, NPC library (AID 1117340); conditions: VEGF-stimulated ADSC/ECFC co-culture, at 10 µM, active compounds read high
Calls of active or inactive are those of the source.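 Rule for the calls: active = compound that reduces growth-factor-driven endothelial tube area in a mixed cell culture, no cutoff stated; inactive = the rest.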

# example entries with known answers
[[record]]
compound = "Cc1ccc(S(=O)(=O)NC(=O)NN2CCCCCC2)cc1"
measurement = "-13.2% (inactive)"

[[record]]
compound = "CN(CCOc1ccc(CC2SC(=O)NC2=O)cc1)c1ccccn1 (configuration not stated)"
measurement = "-11.1% (inactive)"

[[record]]
compound = "CCOc1cc(OCC)c(C(=O)CCC(=O)O)cc1OCC"
measurement = "3.4% (inactive)"


Look up tube area decrease for this compound: `C[C@]12C=CC(=O)C=C1CC[C@@H]1[C@@H]2C(=O)C[C@@]2(C)[C@H]1CC[C@]2(O)C(=O)CO` -13.7% (inactive)

Look up tube area decrease for this compound: `CO/N=C(/C(=O)N[C@@H]1C(=O)N2C(C(=O)[O-])=C(C[n+]3ccn4ncccc43)CS[C@H]12)c1nsc(N)n1` -10.7% (inactive)

Look up tube area decrease for this compound: COc1cccc(CCc2ccccc2OCC(CN(C)C)OC(=O)CCC(=O)O)c1 (configuration not stated) 0.9% (active)

Look up tube area decrease for this compound: `COC(=O)Nc1nc2ccc(C(=O)c3ccccc3)cc2[nH]1` 102% (active)
